Where do these numbers come from? They come from the supplement of paper PMC6555819.

Tested on: RARa homodimer (NR concentration 270 nM)
measurement-description: PBM binding z-score (relative to random genomic background probes); higher = stronger binding; sequences stand for … in GC…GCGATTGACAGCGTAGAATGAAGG
Label 1 when PBM binding z-score is at or above -0.05; anything below gets -1.

Example results:
{"biopolymer-sequence": "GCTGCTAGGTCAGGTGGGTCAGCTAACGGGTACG", "label": -1}
{"biopolymer-sequence": "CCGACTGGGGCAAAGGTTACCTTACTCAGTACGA", "label": -1}
{"biopolymer-sequence": "ACTAGCAGGCCAAGTTTGCGTCACTCAAACAAAG", "label": -1}
{"biopolymer-sequence": "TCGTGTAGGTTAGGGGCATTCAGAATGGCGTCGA", "label": 1}
{"biopolymer-sequence": "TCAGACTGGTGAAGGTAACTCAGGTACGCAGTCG", "label": -1}
{"biopolymer-sequence": "CCTGCCAGGTCATGGTCAGCTAATCTACAGTATG", "label": 1}
{"biopolymer-sequence": "CGTCCAAGGTCAATGCTAGTTCAGTGAAAGCATT", "label": 1}
{"biopolymer-sequence": "CTACCAAGGTGAATAAGGTCGTTGATTACTATTC", "label": 1}
{"biopolymer-sequence": "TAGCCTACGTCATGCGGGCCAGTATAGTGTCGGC", "label": -1}
{"biopolymer-sequence": "GCCTATAGGTAATACAAGGTGAAAGTCCGATTGT", "label": -1}

Does `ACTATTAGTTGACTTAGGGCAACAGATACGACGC` have a reported PBM binding z-score of at least -0.05? 1

How about this sequence: `TCTAGGAGGCCAGAGGGTCACTCAAGAGGTACGG` -1

---

System: RXRa homodimer (NR concentration 180 nM)
measurement-description: PBM binding z-score (relative to random genomic background probes); higher = stronger binding; sequences stand for … in GC…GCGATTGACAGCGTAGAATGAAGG
Output: class label from PBM binding z-score. Mapping: small value: < 0.8; mid value: ≥ 0.8 and < 4; large value: ≥ 4

Example results:
{"biopolymer-sequence": "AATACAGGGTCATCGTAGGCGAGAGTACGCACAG", "label": "large value"}
{"biopolymer-sequence": "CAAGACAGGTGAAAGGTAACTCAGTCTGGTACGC", "label": "mid value"}
{"biopolymer-sequence": "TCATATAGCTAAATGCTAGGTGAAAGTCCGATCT", "label": "small value"}
{"biopolymer-sequence": "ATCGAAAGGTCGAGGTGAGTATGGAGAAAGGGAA", "label": "large value"}
{"biopolymer-sequence": "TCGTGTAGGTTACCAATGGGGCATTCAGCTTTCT", "label": "small value"}
{"biopolymer-sequence": "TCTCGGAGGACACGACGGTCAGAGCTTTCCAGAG", "label": "small value"}
{"biopolymer-sequence": "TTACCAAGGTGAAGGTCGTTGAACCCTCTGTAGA", "label": "mid value"}
{"biopolymer-sequence": "TCTTATAGGTAAAGGTGAAAGTCGAACGATATGA", "label": "mid value"}
{"biopolymer-sequence": "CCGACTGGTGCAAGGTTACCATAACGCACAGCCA", "label": "mid value"}

State the band of `TCTAGTTGTTCACGGAGGTCACACACGACGGGTA` large value

---

Tested on: PPARg:RXRa DBDmut IVT, anti-RXR (DBD mutation: RXRa K156A/R161A, NR concentration 270 nM, RXRa partner concentration 90 nM)
measurement-description: PBM binding z-score (relative to random genomic background probes); higher = stronger binding; sequences stand for … in GC…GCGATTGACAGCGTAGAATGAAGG
Label 1 when PBM binding z-score is at or above 3; anything below gets -1.

Example results:
{"biopolymer-sequence": "CCTAGCAAGCCAGGGTCACTCAAGCATTTCGCTT", "label": -1}
{"biopolymer-sequence": "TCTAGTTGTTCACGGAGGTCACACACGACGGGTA", "label": -1}
{"biopolymer-sequence": "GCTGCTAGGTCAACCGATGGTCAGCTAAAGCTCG", "label": 1}
{"biopolymer-sequence": "ATACCAAGGTGATCGTGAGGTCGTTGGTACTAAC", "label": -1}
{"biopolymer-sequence": "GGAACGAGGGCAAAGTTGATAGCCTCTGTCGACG", "label": 1}

Next, consider the following sequence.
Does `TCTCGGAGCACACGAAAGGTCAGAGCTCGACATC` have a reported PBM binding z-score of at least 3? -1

---

System: PPARg homodimer (NR concentration 180 nM)
measurement-description: PBM binding z-score (relative to random genomic background probes); higher = stronger binding; sequences stand for … in GC…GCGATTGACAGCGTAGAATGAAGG
Label Condition met when PBM binding z-score is at or above 3; anything below gets Condition not met.

Example results:
{"biopolymer-sequence": "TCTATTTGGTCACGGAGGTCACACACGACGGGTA", "label": "Condition met"}
{"biopolymer-sequence": "TCTCGGAGGACACGAAAGGTCACAGCTCGACATC", "label": "Condition met"}
{"biopolymer-sequence": "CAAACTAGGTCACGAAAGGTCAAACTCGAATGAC", "label": "Condition met"}
{"biopolymer-sequence": "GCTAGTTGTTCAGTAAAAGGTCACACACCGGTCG", "label": "Condition met"}
{"biopolymer-sequence": "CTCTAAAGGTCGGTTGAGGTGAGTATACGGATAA", "label": "Condition not met"}
{"biopolymer-sequence": "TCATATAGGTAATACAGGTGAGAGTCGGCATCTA", "label": "Condition not met"}

Next, consider the following sequence.
Does `GCGACTGAGGCATCAGCAGGTTACCATAACTTAA` have a reported PBM binding z-score of at least 3? Condition not met

---

The following sequences are listed with their measured PBM binding z-score values.
System: THRa homodimer (NR concentration 90 nM)
measurement-description: PBM binding z-score (relative to random genomic background probes); higher = stronger binding; sequences stand for … in GC…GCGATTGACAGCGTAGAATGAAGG
Give the figure by itself; no unit, no explanation.

Below, each entry is followed by its recorded PBM binding z-score result.
{"biopolymer-sequence": "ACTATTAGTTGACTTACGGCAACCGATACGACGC", "data-value": -0.0482}
{"biopolymer-sequence": "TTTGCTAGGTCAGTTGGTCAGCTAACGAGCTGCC", "data-value": 0.0567}
{"biopolymer-sequence": "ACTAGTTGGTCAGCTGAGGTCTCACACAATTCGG", "data-value": 0.829}
{"biopolymer-sequence": "CCTCGGAGGACAGAAGGTCAGGGCTGTCCGCTTT", "data-value": 0.202}
{"biopolymer-sequence": "CCTACTGGGCCATCAGGTCATTGTTATCAACGTT", "data-value": 3.28}
{"biopolymer-sequence": "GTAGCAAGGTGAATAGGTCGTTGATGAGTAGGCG", "data-value": -0.149}
{"biopolymer-sequence": "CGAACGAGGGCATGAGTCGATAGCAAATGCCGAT", "data-value": -0.267}
{"biopolymer-sequence": "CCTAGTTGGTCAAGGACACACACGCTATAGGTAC", "data-value": 2.82}

What value of PBM binding z-score has been reported for the following sequence? `GTACCAAGGTGGATAGGTCGTTGATGAGTAGGCG` -0.612

How about this sequence: `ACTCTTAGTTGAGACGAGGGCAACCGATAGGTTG` 0.356

How about this sequence: `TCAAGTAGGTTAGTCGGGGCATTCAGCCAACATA` 0.656

How about this sequence: `CGTCAAAGTTCCAGGTAACGTAACAGAAAGCAGC` 0.691

---

System: PPARg:RXRa (NR concentration 180 nM, RXRa partner concentration 90 nM)
measurement-description: PBM binding z-score (relative to random genomic background probes); higher = stronger binding; sequences stand for … in GC…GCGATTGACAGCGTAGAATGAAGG
Label criterion met when PBM binding z-score is at or above 1; anything below gets criterion not met.

Example results:
{"biopolymer-sequence": "CCTTACGGGTCACTCCAGGATATAGCATCGGAGT", "label": "criterion met"}
{"biopolymer-sequence": "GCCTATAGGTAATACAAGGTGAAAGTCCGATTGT", "label": "criterion not met"}
{"biopolymer-sequence": "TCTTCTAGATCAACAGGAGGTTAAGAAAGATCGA", "label": "criterion not met"}
{"biopolymer-sequence": "TCTTGTAGATCAATAGAGGTTCAGAAAGTGCGCT", "label": "criterion not met"}
{"biopolymer-sequence": "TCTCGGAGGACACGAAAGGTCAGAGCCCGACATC", "label": "criterion met"}

Does `CATACTGGGTCAGCTAGGCCAGAGTAGGGACGGC` have a reported PBM binding z-score of at least 1? criterion met

How about this sequence: `TCGAGTAGGTTAGGGACATTCAGAATGGCGTCGA` criterion not met

How about this sequence: `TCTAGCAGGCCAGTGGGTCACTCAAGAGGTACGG` criterion met

How about this sequence: `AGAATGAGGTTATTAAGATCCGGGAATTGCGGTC` criterion met

How about this sequence: `TCTTGTAGATCAGGCAGGTTAAGAAAGCCTGAGT` criterion not met

How about this sequence: `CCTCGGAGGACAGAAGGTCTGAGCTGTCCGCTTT` criterion not met
